B1: VH:VL chains; a variant is named by its letters at X, in order (parent)
chain 1: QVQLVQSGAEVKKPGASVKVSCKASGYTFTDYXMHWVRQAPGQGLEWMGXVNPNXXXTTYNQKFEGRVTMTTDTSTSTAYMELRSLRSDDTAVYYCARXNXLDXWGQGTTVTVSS
chain 2: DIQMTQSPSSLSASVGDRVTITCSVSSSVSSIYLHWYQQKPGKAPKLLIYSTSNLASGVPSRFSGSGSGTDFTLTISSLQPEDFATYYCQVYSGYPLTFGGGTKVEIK

Variants of: B1
Experiment: yeast display scFab, FACS + sequencing
assay endpoint: non-specific binding call

Observe how each entry below is paired with its result.
FRGRGAAS
binds
STATADVA
no binding
STGGNDAD
no binding
VTGEDSLV
no binding
DKERGDLV
no binding

Input line: Bench note: what non-specific binding call did FRRRGSSD show?
Output line: binds

Input line: Bench note: what non-specific binding call did FRGKGAVD show?
Output line: binds

Input line: Bench note: what non-specific binding call did VRRGSAGS show?
Output line: binds

Input line: Bench note: what non-specific binding call did AARADSGY show?
Output line: no binding

Input line: Bench note: what non-specific binding call did YTEGDDWY show?
Output line: no binding

Input line: Bench note: what non-specific binding call did AGGGNDWV show?
Output line: no binding

Input line: Bench note: what non-specific binding call did SREAADGV show?
Output line: no binding

Input line: Bench note: what non-specific binding call did VRAGADVA show?
Output line: no binding

Input line: Bench note: what non-specific binding call did VATGDFGV show?
Output line: no binding

Input line: Bench note: what non-specific binding call did VAGTGSSD show?
Output line: no binding

Input line: Bench note: what non-specific binding call did SGGRDSGV show?
Output line: binds

Input line: Bench note: what non-specific binding call did VKGRGSGS show?
Output line: binds

Input line: Bench note: what non-specific binding call did DREGDAVA show?
Output line: no binding

Input line: Bench note: what non-specific binding call did FRTKGSGD show?
Output line: binds

Input line: Bench note: what non-specific binding call did SREAADWV show?
Output line: no binding

Input line: Bench note: what non-specific binding call did VAAAGAAV show?
Output line: no binding

Input line: Bench note: what non-specific binding call did SKGASAWA show?
Output line: binds
